Each entry below carries its reported IC50.
Molecular target: UniProtKB Q9UM73
Sequence (Q9UM73 1116-1392 limits assumed, species assumed): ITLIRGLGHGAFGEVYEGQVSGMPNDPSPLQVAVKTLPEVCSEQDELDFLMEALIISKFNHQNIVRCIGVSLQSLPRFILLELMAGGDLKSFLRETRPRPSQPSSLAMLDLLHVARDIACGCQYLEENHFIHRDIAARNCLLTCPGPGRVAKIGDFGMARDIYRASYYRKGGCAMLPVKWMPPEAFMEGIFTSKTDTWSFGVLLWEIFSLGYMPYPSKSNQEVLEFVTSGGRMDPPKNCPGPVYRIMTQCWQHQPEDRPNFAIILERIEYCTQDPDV

{"columns": ["Compound", "IC50"],
 "data": [
  ["Cc1cc(C)c(OC[C@H](O)CNc2cc[nH]c(=O)c2-c2nc3cc4c(cc3[nH]2)C(=O)N(C2CCN(C)CC2)C4=O)c(C)c1", "0.5 to 5 µM"],
  ["O=C1c2cc3nc(-c4c(NC[C@@H](O)COc5c(F)ccc(Cl)c5F)cc[nH]c4=O)[nH]c3cc2C(=O)N1CC1CCN(CCO)CC1", "0.5 to 5 µM"],
  ["Cc1ccc(OC[C@H](O)CNc2cc[nH]c(=O)c2-c2nc3cc4c(cc3[nH]2)C(=O)N(CC(C)(C)CN(C)C)C4=O)c(C)c1", "5 to 15 µM"],
  ["Cc1ccc(OCC(O)CNc2cc[nH]c(=O)c2-c2nc3cc4c(cc3[nH]2)C(=O)N(CC2CCN(CCO)CC2)C4=O)c(C)c1 (stereo not drawn)", "5 to 15 µM"],
  ["CC(Nc1cc[nH]c(=O)c1-c1nc2cc3c(cc2[nH]1)C(=O)N(C1CCN(C)CC1)C3=O)C1COc2ccccc2O1 (stereo not drawn)", "5 to 15 µM"],
  ["Cc1ccc(OC[C@H](O)CNc2cc[nH]c(=O)c2-c2nc3cc4c(cc3[nH]2)C(=O)N(CC2CCN(CCO)CC2)C4=O)c(C)c1", "0.5 to 5 µM"]
]}

----------
Read-out record for IGF1R tyrosine kinase (Homo sapiens, UniProt P08069): IC50
Assay metric: IC50

{"columns": ["Structure notation", "Measured value"],
 "data": [
  ["O=C1c2cc3nc(-c4c(NC[C@@H](O)COc5c(F)ccc(Cl)c5F)cc[nH]c4=O)[nH]c3cc2C(=O)N1C1CCN(CCO)CC1", "< 500 nM"],
  ["O=C1c2cc3nc(-c4c(NC[C@@H](O)COc5c(F)ccc(Cl)c5F)cc[nH]c4=O)[nH]c3cc2C(=O)N1C1CCN(CCCO)CC1", "< 500 nM"],
  ["O=C1c2cc3nc(-c4c(NC[C@@H](O)c5cccc(Cl)c5)ccnc4O)[nH]c3cc2C(=O)N1CCN1CCOCC1", "500 to 5000 nM"]
]}

----------
Target: IGF1R tyrosine kinase (Homo sapiens, UniProt P08069)
Sequence (P08069 999-1274 limits assumed): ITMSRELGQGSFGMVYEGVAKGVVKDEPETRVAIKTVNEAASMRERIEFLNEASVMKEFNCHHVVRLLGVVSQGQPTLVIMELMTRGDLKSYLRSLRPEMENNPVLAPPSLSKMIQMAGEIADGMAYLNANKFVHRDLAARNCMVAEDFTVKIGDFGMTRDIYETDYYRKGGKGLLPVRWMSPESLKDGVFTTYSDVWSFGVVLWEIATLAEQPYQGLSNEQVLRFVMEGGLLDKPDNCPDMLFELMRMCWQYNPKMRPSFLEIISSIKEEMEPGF
In this section, each of the molecules is paired with its reported IC50.
Assay metric: IC50

{"columns": ["Molecule", "Assay metric", "Measured value"],
 "data": [
  ["Cc1ccc(OC[C@H](O)CNc2cc[nH]c(=O)c2-c2nc3c(C)c4c(cc3[nH]2)C(=O)N(C2CCN(C)CC2)C4=O)c(C)c1Cl [compound 137]", "IC50", "500 to 5000 nM"],
  ["Cc1ccc(OC[C@H](O)CNc2cc[nH]c(=O)c2-c2nc3cc4c(cc3[nH]2)C(=O)N(CC(C)(C)CN(C)C)C4=O)c(C)c1 [compound 116]", "IC50", "< 500 nM"],
  ["CN1CCC(N2Cc3cc4nc(-c5c(N[C@@H](CO)Cc6ccccc6)cc[nH]c5=O)[nH]c4cc3C2=O)CC1 [compound 160]", "IC50", "500 to 5000 nM"],
  ["O=C1CCCN1CCCN1C(=O)c2cc3nc(-c4c(NC[C@@H](O)c5cccc(Cl)c5)cc[nH]c4=O)[nH]c3cc2C1=O [compound 47]", "IC50", "500 to 5000 nM"],
  ["Cc1ccc(OC[C@H](O)CNc2cc[nH]c(=O)c2-c2nc3cc4c(cc3[nH]2)CN(C2CCN(C)CC2)C4=O)c(Br)c1 [compound 166]", "IC50", "< 500 nM"],
  ["Cc1c(Cl)cccc1OC[C@H](O)CNc1cc[nH]c(=O)c1-c1nc2cc3c(cc2[nH]1)C(=O)N(CC1CCN(CCO)CC1)C3=O [compound 119]", "IC50", "< 500 nM"],
  ["O=C1c2cc3nc(-c4c(NC[C@@H](O)c5cccc(Cl)c5)cc[nH]c4=O)[nH]c3cc2C(=O)N1C[C@@H]1CCCO1 [compound 29]", "IC50", "> 15000 nM"],
  ["CN1CCC(N2Cc3cc4nc(-c5c(NC[C@@H](O)COc6c(F)ccc(F)c6Cl)cc[nH]c5=O)[nH]c4cc3C2=O)CC1 [compound 155]", "IC50", "< 500 nM"],
  ["CN1CCC(N2Cc3cc4[nH]c(-c5c(NC[C@@H](O)COc6c(F)cc(F)cc6Br)cc[nH]c5=O)nc4cc3C2=O)CC1 [compound 164]", "IC50", "< 500 nM"],
  ["COc1cc(F)ccc1OC[C@H](O)CNc1ccnc(O)c1-c1nc2cc3c(cc2[nH]1)C(=O)N(C1CCN(C)CC1)C3=O [compound 57]", "IC50", "500 to 5000 nM"],
  ["O=C1c2cc3nc(-c4c(NC[C@@H](O)c5cccc(Cl)c5)cc[nH]c4=O)[nH]c3cc2C(=O)N1[C@@H]1CN2CCC1CC2 [compound 33]", "IC50", "< 500 nM"],
  ["CN1CCC(N2C(=O)c3cc4nc(-c5c(NC[C@@H](O)COc6cccc(C(F)(F)F)c6)cc[nH]c5=O)[nH]c4cc3C2=O)CC1 [compound 97]", "IC50", "500 to 5000 nM"],
  ["CCN1CCC(N2C(=O)c3cc4nc(-c5c(NC[C@@H](O)COc6ccc(C)cc6C)cc[nH]c5=O)[nH]c4cc3C2=O)CC1 [compound 143]", "IC50", "< 500 nM"]
]}
